Cited source for all entries: paper PMC12102759

B1: PEX5 peptide 238-253 (Peroxisomal targeting signal 1 receptor), 16-mer library wild type / PEX14 Pex14 (PEX14 PEX14, residues 16-84) (parent)
chain 1: AQAEQWAAEFIQQQGT
chain 2: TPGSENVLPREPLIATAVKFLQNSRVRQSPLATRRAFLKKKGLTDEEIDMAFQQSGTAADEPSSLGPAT

variants of: B1; experiment: proteomic peptide phage display deep mutational scan (ProP-PD DMS): M13 P8 16-mer library selected against immobilised GST-tagged bait for four days (rounds), NGS of the eluted pools per day and pseudo-replica; settings: with PEX14 Pex14 (PEX14 PEX14, residues 16-84); bait immobilised on MaxiSorp plates (10 µg), library pre-cleared on GST, 2 h binding at 4 °C, five washes; one round per day, days 1-4; value from days 2 and 3; keep out of graded; scale: average fractional NGS count over selection days 2 and 3
measured attribute: screen value
Please respond with just the number, no unit label.

Solved entries (count: 8):
INSERT INTO measurements (mutations, result_value) VALUES
  ('chain 1 Q13K', 0),
  ('chain 1 T16Q', 0.00068),
  ('chain 1 G15R', 0.000288),
  ('chain 1 W6L', 0),
  ('chain 1 A7D', 0),
  ('chain 1 A7H', 0.00597),
  ('chain 1 Q5A', 0.000195),
  ('chain 1 G15I', 0);

## Input Please report screen value for the following variant: chain 1 E4I
## Output 0.000318

## Input Please report screen value for the following variant: chain 1 E9M
## Output 0.000215

## Input Please report screen value for the following variant: chain 1 A3I
## Output 0

## Input Please report screen value for the following variant: chain 1 A8S
## Output 0.000444

## Input Please report screen value for the following variant: chain 1 E9T
## Output 0.00204

## Input Please report screen value for the following variant: chain 1 A8D
## Output 0

## Input Please report screen value for the following variant: chain 1 Q14V
## Output 0.000266

## Input Please report screen value for the following variant: chain 1 A3E
## Output 0.000385

## Input Please report screen value for the following variant: chain 1 A7I
## Output 0.000152

## Input Please report screen value for the following variant: chain 1 Q14R
## Output 0.0013
